target-system: Nonstructural protein 3 (Zika virus, UniProt A0A024AXB9)
Sequence (A0A024AXB9 whole entry): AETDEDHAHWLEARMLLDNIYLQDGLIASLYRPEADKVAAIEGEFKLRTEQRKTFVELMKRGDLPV
assay-text: Functional biochemical assay to identify treatments for viral infectious disease that targets Zika NS2B-NS3 protease. Utilizing a direct enzyme activity measurement method, reading the fluorescence intensity is used to characterize the relative potency of inhibitors as IC50.
Design: species or system PRVABC59
parameter: pIC50
Note on pIC50: it is the negative log10 of concentration, concentration in mol/L.

>>> quantitative_readout("COc1cc(NS(=O)(=O)c2ccc(Oc3ccccc3Cl)cc2)c(C(=O)O)cc1Cl")
4.79
>>> quantitative_readout("NCc1ccc2nc(-c3cc(Cl)cc(NC(=O)OCc4ccccc4)c3)c(CCCO)cc2c1")
4.29
>>> quantitative_readout("C[C@]1(O)C(=O)Nc2cc(F)cc(C(=O)Nc3ccc4c(c3)CNC4)c21")
6.77
>>> quantitative_readout("NCc1ccc(NC(=O)[C@H]2[C@H]3CCCCC[C@H]3[C@H]2NC(=O)OCc2ccccc2)cc1")
4.44
>>> quantitative_readout("N#Cc1cc(CN)cc(NC(=O)c2cc(Cl)cc(NC(=O)OCc3ccccc3)c2)c1")
4.97
>>> quantitative_readout("COC(=O)c1cc(NC(=O)OCc2ccccc2)cc(C(=O)Nc2cccc(CN)c2)c1")
4.25
>>> quantitative_readout("NCc1cccc(NC(=O)c2cccc(CN)c2)c1")
5.73
>>> quantitative_readout("NCc1cccc(NC(=O)c2cc(Cl)cc3c2OCCNC3)c1")
4.34
>>> quantitative_readout("NCc1cccc(NC(=O)[C@@H](NC(=O)OCc2ccccc2)c2ccc(OCc3ncccn3)cc2)c1")
4.32
>>> quantitative_readout("Fc1cc(CNc2ccc3c(c2)CNC3)c2cn[nH]c2c1")
5.45

// switching to the query molecule
Give its pIC50 value. Item: "NCc1cc(Cl)cc(C(=O)Nc2cccc(C3CCNCC3)c2)c1"
4.59

* * *

target-system: Nonstructural protein 3 (Zika virus, UniProt A0A024AXB9)
assay-text: Functional biochemical assay to identify treatments for viral infectious disease that targets Zika NS2B-NS3 protease. Utilizing a direct enzyme activity measurement method, reading the fluorescence intensity is used to characterize the relative potency of inhibitors as IC50.
Set-up: species or system PRVABC59
parameter: IC50

>>> result("O=C(Nc1ccc2c(c1)CS(=O)(=O)C2)c1cc(Cl)cc2[nH]ncc12")
"> 25 µM"

Give its IC50 value. Item: "Cc1ncc(Br)cc1C(=O)Nc1ccc2c(c1)CNC2"
1.85 µM

Give its IC50 value. Item: "Cn1cc(-c2ccc([C@@H](NC(=O)OCc3ccccc3)C(=O)Nc3cccc(CN)c3)cc2)cn1"
> 99.5 µM

Give its IC50 value. Item: "CNC(=O)[C@H](Nc1cc(Cl)cc(NC(=O)OCc2ccccc2)c1)c1ccc(-c2nn[nH]n2)cc1"
> 99.5 µM

Give its IC50 value. Item: "Cc1nn(C)cc1-c1ccc(S(=O)(=O)Nc2ccc(Cl)cc2C(=O)O)cc1"
> 99.5 µM

Give its IC50 value. Item: "CC1=C(c2cc(NC(=O)c3cc(Cl)cc4[nH]ncc34)cc3c2CNC3)CCC1=O"
0.137 µM

* * *

target-system: Nonstructural protein 3 (Zika virus)
assay-text: Functional biochemical assay to identify treatments for viral infectious disease that targets Zika NS2B-NS3 protease. Utilizing a direct enzyme activity measurement method, reading the fluorescence intensity is used to characterize the relative potency of inhibitors as IC50.
Set-up: species or system PRVABC59
pIC50: −log10 of the molar value.
parameter: pIC50

Consider the reported pIC50 for these compounds:
>>> result("Nc1nc2c(Br)cc(C(=O)Nc3ccc4c(c3)CNC4)cc2s1")
5.29
>>> result("N#Cc1cc(CN)cc([C@H]2C[C@@H]2c2cc(Cl)cc(NC(=O)OCc3ccccc3)c2)c1")
"< 4.00"
>>> result("Cn1nc(C(F)(F)F)cc1C(=O)Nc1cc(-c2cccnc2)ccn1")
"< 4.60"
>>> result("CCn1cc(-c2cn(C)nc2C)nc(N2CC[C@@H](CO)C2)c1=O")
"< 4.00"
>>> result("NC1CCN(C(=O)c2cc(Cl)cc(NC(=O)OCc3ccccc3)c2)CC1")
"< 4.00"

Give its pIC50 value. Item: "N[C@H](CO)c1cccc(NC(=O)c2cc(Cl)cc(NC(=O)OCc3ccccc3)c2)c1"
4.24

Give its pIC50 value. Item: "Cc1c(C(=O)Nc2cc(C(=O)N3CCC(O)CC3)ccn2)cc(C2CC2)n1C"
< 4.60

Give its pIC50 value. Item: "Cc1[nH]nc2c1CC[C@H](NC(=O)c1cccc3c1CC(=O)N3)C2"
< 4.60

Give its pIC50 value. Item: "O=C(Nc1cc(Cl)cc(C(=O)NCCCc2nnn[nH]2)c1)OCc1ccccc1"
< 4.00

Give its pIC50 value. Item: "O=C(O)c1cc2cc(-c3cc(Cl)cn4ncnc34)ccc2[nH]1"
< 4.00
